Source: paper PMC10825133

List of pIC50 values.
# System: MDA-MB-436 cells
# assay_method_text: Resazurin-based cell viability assay, monotherapy drug screen
# Parameters: species or system human
# measurement_context: MDA-MB-436; growth rate inhibition concentration at GR(c) = 0.5, 24 h; read-out: GR50 (the source's name)
pIC50: −log10 of the molar value.
assay_readout: pIC50

molecule	target_or_system	obs_value
N.N.[Cl][Pt][Cl] [Cisplatin]	MDA-MB-436 cells	7.37
[NH2][Pt]1([NH2])[O]CC(=O)[O]1 [Nedaplatin]	MDA-MB-436 cells	6.89
N.N.O=C([O-])C1(C(=O)[O-])CCC1.[Pt+2] [Carboplatin]	MDA-MB-436 cells	6.06
CC[C@H](C)[C@H](NC(=O)[C@H]([C@@H](C)CC)N(C)C(C)=O)C(=O)N[C@H](C(=O)N[C@@H](CC(C)C)C(=O)[C@@]1(C)CO1)[C@@H](C)O [Epoxomicin]	MDA-MB-436 cells	6.49
